Test system: M14 melanoma
ASSAY NOTES: NCI-60 one-dose screen, 48 h
CONDITION NOTES: 10 µM unless noted
This is part of a sample that, as a whole, favours compounds with a hit. Of some 83,000 tested, about 20% had one in any assay. Active and inactive are the calls of the source. The calls were made as follows: active = growth percent below 10; inactive = the rest.
Possible outcomes: y for active, n for inactive

{"COMPOUND": "COc1ccccc1/C=C1\\Oc2ccc(O)c(O)c2C1=O", "CATEGORY": "n"}
{"COMPOUND": "COc1ccc(CC(C)=C(c2ccc(OCCN3CCCC3)cc2)c2ccc(OCCN3CCCC3)cc2)cc1", "CATEGORY": "y"}
{"COMPOUND": "CC(=O)Nc1nc(C)c(-c2csc(Nc3ccccc3)n2)s1", "CATEGORY": "n"}
{"COMPOUND": "Clc1ccc2c(N/N=C/c3c[nH]c4ccccc34)ccnc2c1", "CATEGORY": "y"}
{"COMPOUND": "COc1ccccc1/C=C/C(=O)c1nnn(-c2ccc(F)cc2)c1C", "CATEGORY": "n"}
{"COMPOUND": "C#Cc1nc(/C=C/CCCCCCC(=O)NO)cs1", "CATEGORY": "n"}
{"COMPOUND": "CSc1ccc(/C(=N/N=C(N)N)c2ccc(Cl)cc2)cc1", "CATEGORY": "y"}
{"COMPOUND": "Clc1ccc(CSc2nnc(-c3ccc(Cl)cc3)n2-c2ccccc2)cc1", "CATEGORY": "n"}
{"COMPOUND": "COc1cc2cc(Oc3ccc(NC(=O)c4cc(C(F)(F)F)cc(C(F)(F)F)c4)cc3)c(C)nc2cc1OCCN1CCOCC1", "CATEGORY": "n"}
{"COMPOUND": "CCc1cccc2c3c(sc12)C(c1ccc(F)cc1)C(C#N)=C(/N=C/c1ccc(Cl)cc1)O3 (configuration not stated)", "CATEGORY": "y"}
{"COMPOUND": "COC(=O)CNC(=O)c1cccc(-c2cc(=O)c3c(OC)c(OC)c(OC)cc3o2)c1", "CATEGORY": "n"}
{"COMPOUND": "C#C[C@]1(O)CC[C@H]2[C@@H]3CC=C4c5sc(Nc6cc(C)cc(C)c6)nc5CC[C@]4(C)[C@H]3CC[C@@]21C", "CATEGORY": "y"}
{"COMPOUND": "CN1CCN(CCCCCC(=O)Nc2nc(-c3cccc(NS(=O)(=O)c4cccc5c(N(C)C)cccc45)c3)cs2)CC1", "CATEGORY": "y"}
{"COMPOUND": "CC(=O)Nc1ccccc1-c1nc2ccccc2s1", "CATEGORY": "n"}
{"COMPOUND": "C#CCN(C)CCCOc1ccc(NC(=O)CCCCCCC(=O)NO)cc1Cl", "CATEGORY": "n"}
{"COMPOUND": "O=C1[C@H]2Cc3c([nH]c4ccccc34)[C@H](c3ccc(Br)cc3)N2C(=O)CN1C1CCN(CC2CCCCC2)CC1", "CATEGORY": "y"}
{"COMPOUND": "O=S(=O)(NCCCNc1nccc(-c2[nH]c(-c3ccccc3)nc2-c2ccc(F)c(O)c2)n1)c1ccccc1", "CATEGORY": "n"}
{"COMPOUND": "CCCCCCN1C=C/C(=C\\C(=O)n2ccc3ccccc32)c2ccccc21", "CATEGORY": "n"}
{"COMPOUND": "Cc1ccccc1Nc1nc(SC(C)C)nc(-c2ccccc2)c1C#N", "CATEGORY": "n"}
{"COMPOUND": "CC[C@]12CC(C(=O)OC)=C3Nc4ccccc4[C@@]34CCN(C14)[C@@H]1c3cc4c(cc3O[C@@H]1[C@H]2O)NC1=C(C(=O)OC)C[C@@]2(CC)C3N(CC[C@@]143)C[C@H]1O[C@H]12 (some centres not stated)", "CATEGORY": "n"}
{"COMPOUND": "O=C(CSc1nc2ccccc2c(=O)n1-c1ccc(S(=O)(=O)Nc2ccc(Cl)nn2)cc1)Nc1ccc(S(=O)(=O)Nc2ccc(Cl)nn2)cc1", "CATEGORY": "n"}
{"COMPOUND": "NS(=O)(=O)c1cccc(Nc2nc(SCC(=O)c3ccc(Cl)cc3)nc3c2CCC3)c1", "CATEGORY": "n"}
{"COMPOUND": "O=C(COc1ccc(/C=C2\\C(=O)Nc3ccc(Cl)cc32)cc1)Nc1ccc(Cl)cc1", "CATEGORY": "y"}
{"COMPOUND": "C#CCN(C)CCCOc1ccc(NCc2ccc(/C=C/C(=O)NO)cc2)cc1Cl", "CATEGORY": "y"}
{"COMPOUND": "CC(=O)OC[C@@]12Oc3c(cccc3-c3ccc(O)c4c3O[C@]3(COC(C)=O)C(=C4O)C(=O)C[C@H](C)[C@@H]3OC(C)=O)C(O)=C1C(=O)C[C@H](C)[C@@H]2OC(C)=O", "CATEGORY": "n"}
{"COMPOUND": "Cc1nc(/N=C(N)/N=C(\\N)c2cccc(Br)c2)sc1C", "CATEGORY": "n"}
{"COMPOUND": "CNC(=O)c1cc(N2CCc3cc(NC(=O)Nc4ccc(N5CCOCC5)c(C(F)(F)F)c4)ccc32)ccn1", "CATEGORY": "n"}
